Target: Or22a (Drosophila melanogaster)
Construct: his-tag; made in house; host or cells: baculovirus-infected Sf9 cells
Test: GFET sensor, Or22a liposomes
Type: biochemical
Settings: Table 4, GFET
pEC50: −log10 of the molar value.
Value kind: pEC50

Compound | Recorded number
CCCCCC(=O)OC [methyl hexanoate] | 10.92

----------
Biological target: Or22a (Drosophila melanogaster)
Construct: his-tag; made in house; host or cells: baculovirus-infected Sf9 cells
Sequence (P81909 1-397): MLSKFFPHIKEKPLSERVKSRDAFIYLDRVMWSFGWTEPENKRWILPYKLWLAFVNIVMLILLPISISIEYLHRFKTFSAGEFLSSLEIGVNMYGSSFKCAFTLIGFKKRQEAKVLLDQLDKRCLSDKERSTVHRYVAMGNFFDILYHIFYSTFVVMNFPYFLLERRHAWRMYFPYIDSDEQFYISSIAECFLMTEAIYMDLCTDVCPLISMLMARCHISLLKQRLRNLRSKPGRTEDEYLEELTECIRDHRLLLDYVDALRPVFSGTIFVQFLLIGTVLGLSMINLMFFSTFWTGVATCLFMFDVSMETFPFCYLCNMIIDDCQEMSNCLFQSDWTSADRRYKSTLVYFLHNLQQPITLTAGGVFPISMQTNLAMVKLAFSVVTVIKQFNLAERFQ
Experiment: EIS sensor, Or22a liposomes on gold electrode
Type: biochemical
Details: Table 1, approximate
pEC50: −log10 of the molar value.

Compound | pEC50
CCCCCC(=O)OC [methyl hexanoate] | ~12.00

----------
Molecular target: Or10a/Orco (Drosophila melanogaster, UniProt Q9VYZ1)
Construct: his-tag; made in house; host or cells: baculovirus-infected Sf9 cells
Sequence (Q9VYZ1 whole entry): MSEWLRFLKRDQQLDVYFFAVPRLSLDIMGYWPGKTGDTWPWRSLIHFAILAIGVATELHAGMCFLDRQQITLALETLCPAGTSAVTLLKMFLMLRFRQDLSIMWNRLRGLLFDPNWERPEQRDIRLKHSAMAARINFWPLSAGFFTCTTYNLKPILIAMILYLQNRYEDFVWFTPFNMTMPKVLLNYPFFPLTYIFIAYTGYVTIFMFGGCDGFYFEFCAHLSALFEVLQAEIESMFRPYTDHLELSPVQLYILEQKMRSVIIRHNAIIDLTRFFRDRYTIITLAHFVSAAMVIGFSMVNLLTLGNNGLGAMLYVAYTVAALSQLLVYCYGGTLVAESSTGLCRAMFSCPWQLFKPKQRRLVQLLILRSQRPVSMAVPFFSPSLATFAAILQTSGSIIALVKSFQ
Sequence (Q9VNB5 whole entry partner): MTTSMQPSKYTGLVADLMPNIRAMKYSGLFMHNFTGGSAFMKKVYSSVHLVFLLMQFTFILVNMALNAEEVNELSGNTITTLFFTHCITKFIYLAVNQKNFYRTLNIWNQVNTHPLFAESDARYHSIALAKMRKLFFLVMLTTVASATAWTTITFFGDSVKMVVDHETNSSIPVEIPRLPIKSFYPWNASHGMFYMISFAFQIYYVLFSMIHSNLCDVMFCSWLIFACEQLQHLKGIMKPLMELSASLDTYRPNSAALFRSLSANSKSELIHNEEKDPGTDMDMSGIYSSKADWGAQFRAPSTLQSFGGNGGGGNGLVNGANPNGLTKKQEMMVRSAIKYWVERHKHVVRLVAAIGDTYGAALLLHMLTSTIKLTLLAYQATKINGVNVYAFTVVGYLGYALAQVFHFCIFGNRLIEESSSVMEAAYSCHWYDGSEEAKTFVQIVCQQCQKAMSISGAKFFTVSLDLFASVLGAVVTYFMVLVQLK
Experiment: GFET sensor, Or10a/Orco liposomes
Assay type: biochemical
Details: Table 4, GFET
pEC50: −log10 of the molar value.
Value kind: pEC50

Compound | Measured on | Value kind | Recorded number
COC(=O)c1ccccc1O [methyl salicylate] | Or10a/Orco (Drosophila melanogaster, UniProt Q9VYZ1) | pEC50 | 11.68

----------
Biological target: Or22a (Drosophila melanogaster, UniProt P81909)
Construct: his-tag; made in house; host or cells: baculovirus-infected Sf9 cells
Experiment: EIS sensor, Or22a liposomes on gold electrode
Format: biochemical
Conditions: Table 3, fitted dose response

Molecule | Measured on | EC50
CCCCCC(=O)OC [methyl hexanoate] | Or22a (Drosophila melanogaster, UniProt P81909) | 1.1 pM

----------
Biological target: Or10a (Drosophila melanogaster, UniProt Q9VYZ1)
Construct: his-tag; made in house; host or cells: baculovirus-infected Sf9 cells
Sequence (Q9VYZ1 whole entry): as the sequence (Q9VYZ1 whole entry) above
Assay: EIS sensor, Or10a liposomes on gold electrode
Type: biochemical
Details: Table 3, fitted dose response
pEC50: −log10 of the molar value.
Value kind: pEC50

Molecule | Recorded number
COC(=O)c1ccccc1O [methyl salicylate] | 11.66

----------
Target: Or22a/Orco (Drosophila melanogaster, UniProt P81909)
Construct: his-tag; made in house; host or cells: baculovirus-infected Sf9 cells
Assay: GFET sensor, Or22a/Orco liposomes
Format: biochemical
Details: Table 4, GFET
Value kind: EC50 (pM)

Molecule | Recorded number
CCCCCC(=O)OC [methyl hexanoate] | 3.91

----------
Target: Or10a (Drosophila melanogaster)
Construct: his-tag; made in house; host or cells: baculovirus-infected Sf9 cells
Test: GFET sensor, Or10a liposomes
Assay type: biochemical
Conditions: Table 4, GFET
Value kind: EC50

Compound | Measured on | Result
COC(=O)c1ccccc1O [methyl salicylate] | Or10a (Drosophila melanogaster) | 0.0156 nM
